Listed below: EC50 values for each entry.
System Tested: Glutathione S-transferase (GST)-tagged GII.4 Sydney 2012 P domain dimers
Assay Notes: ELISA
Write it as a number; the unit µg/mL goes unstated.

1. NORO-278 (antibody, V domains shown) VH: QVQLVESGGGVVQPGRSLRLSCAASGFTFSSYGMHWVRQAPGKGLEWVAVISYDGSNKYYADSVKGRFTISRDNSKNTLYLQMNSLRAEDTAVYYCAKVTIIAAADLLDYWGQGTLVTVSS VL: QSVLTQPPSVSGAPGQRVTISCTGSSSNIGAGYDVHWYQQLPGTAPKLLIYGNSNRPSGVPDRFSGSKSGTSASLAITGLQAEDEADYYCQSYDSSLSGPVVFGGGTKLTVL = 68.5

Field: next binder
## Input Find the recorded EC50 belonging to NORO-317 (antibody, V domains shown) VH: QVQLVESGGGLVKPGGSLRLSCVASGFTFSDYYISWVRQAPGKGLEWVSYISAINSYTNYADSVRGRFTVSRDNAKKSVFLQMNSLRVDDTAVYYCARDVGGSVRYSSNSNKKSYNYFDPWGQGTLVTVSS VL: SYELTQPPSVSVSPGQTATITCSGDVLSKEFAYWYQQKPGQAPVLVIYKDNERPSGIPERFSGSTSGTTVTLTISGVLAEDEAHYYCQSVDTRGTYKVFGGGTKLTVL and report it.
## Output 0.2

Cited source: patent US20210324050A1
